# key: entry, value: IC50
Molecular target: Aβ (1-42) (Homo sapiens, UniProt P05067)
Construct: Required Aβ (1-42) (California Peptide) was dried from its hexafluoroisopropanol (HFIP) stock solution; purchased California Peptide
Sequence (P05067 672-713 limits assumed): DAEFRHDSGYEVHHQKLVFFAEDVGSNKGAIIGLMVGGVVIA
Assay: BATYM assay (Aβ (1-42) aggregation, Thioflavin T fluorescence)
Type: biochemical
Conditions: Aβ 1-42 final concentration 100 μM, 37° C., 1 day, letter = synthetic lot
assayEndpoint: IC50 (µM)

- testSmiles: "CCNc1ccc(CCCc2ccc(Nc3ccccc3C(=O)O)cc2)cc1"
  assayEndpoint: "IC50"
  signQualifier: "="
  quantitativeReadout: 38.1
- testSmiles: "O=C(O)c1ccccc1Nc1ccc(CCCc2cccc([N+](=O)[O-])c2)cc1"
  assayEndpoint: "IC50"
  signQualifier: "="
  quantitativeReadout: 62.7
- testSmiles: "O=C(O)c1cc([N+](=O)[O-])ccc1Nc1ccc(CCc2cccc(Cl)c2)cc1"
  assayEndpoint: "IC50"
  signQualifier: "="
  quantitativeReadout: 9.43
- testSmiles: "CCCCN(CCCC)c1ccc(CCCc2ccc(Nc3ccccc3C(=O)O)cc2)cc1"
  assayEndpoint: "IC50"
  signQualifier: "="
  quantitativeReadout: 26.5
- testSmiles: "CCCCN1CCc2cc(C=C3SC(=S)N(CC(=O)O)C3=O)ccc21"
  assayEndpoint: "IC50"
  signQualifier: "="
  quantitativeReadout: 11.5
- testSmiles: "O=C(O)c1ccccc1Nc1ccc(CCc2ccccc2)cc1"
  assayEndpoint: "IC50"
  signQualifier: ">"
  quantitativeReadout: 100
- testSmiles: "CN(C)c1ccc(N(C)c2ccc(CCc3ccc(Cl)c(Cl)c3)cc2)c(C(=O)O)c1"
  assayEndpoint: "IC50"
  signQualifier: "="
  quantitativeReadout: 93.4
- testSmiles: "CCCNc1ccc(CCCc2ccc(Nc3ccccc3C(=O)O)cc2)cc1"
  assayEndpoint: "IC50"
  signQualifier: "="
  quantitativeReadout: 39.1
- testSmiles: "CC(=O)Nc1ccc(CCCc2ccc(Nc3ccccc3C(=O)O)cc2)cc1"
  assayEndpoint: "IC50"
  signQualifier: ">"
  quantitativeReadout: 100
- testSmiles: "Clc1ccc(CCc2ccc(Nc3ccccc3-c3nnn[nH]3)cc2)cc1Cl"
  assayEndpoint: "IC50"
  signQualifier: ">"
  quantitativeReadout: 100
- testSmiles: "O=C(O)c1cccnc1Nc1ccc(CCc2ccc(Cl)c(Cl)c2)cc1"
  assayEndpoint: "IC50"
  signQualifier: "="
  quantitativeReadout: 74.8
- testSmiles: "CN(C)c1ccc(CCCc2ccc(Nc3ccccc3C(=O)O)cc2)cc1"
  assayEndpoint: "IC50"
  signQualifier: "="
  quantitativeReadout: 45
- testSmiles: "Nc1ccc(CCCc2ccc(Nc3ccccc3C(=O)O)cc2)cc1"
  assayEndpoint: "IC50"
  signQualifier: ">"
  quantitativeReadout: 100
- testSmiles: "Cc1ccc(Nc2ccc(CCc3ccc(Cl)c(Cl)c3)cc2)c(C(=O)O)c1"
  assayEndpoint: "IC50"
  signQualifier: "="
  quantitativeReadout: 46.2
- testSmiles: "Cc1ccc(Nc2ccc(CCCc3ccc(Cl)c(Cl)c3)cc2)c(C(=O)O)c1"
  assayEndpoint: "IC50"
  signQualifier: ">"
  quantitativeReadout: 100
- testSmiles: "CCN(CC)c1ccc(CCCc2cccc(Nc3ccccc3C(=O)O)c2)cc1"
  assayEndpoint: "IC50"
  signQualifier: "="
  quantitativeReadout: 27.8
